- targetUnderTest: Spermine synthase (Rattus norvegicus)
- experiment: Inhibitory activity against spermine synthase
pIC50: −log10 of the molar value.
quantityName: pIC50

[[record]]
compound = "C[S+](C[C@H]1O[C@H](n2cnc3c(N)ncnc32)[C@H](O)[C@@H]1O)C(CCN)CCCCCN (stereo partly specified)"
measurement = 4.10

